EXPERIMENTAL_SYSTEM: Metabotropic glutamate receptor 8 (Rattus norvegicus)
MEASUREMENT_PROTOCOL: mGluR8 Gi/Go-coupled signaling modulation – cell-based, rat, thallium flux, HTS, primary screen (AID 488969)
PROTOCOL_CONDITIONS: HEK293 rat mGluR8, GIRK (G protein-gated inwardly rectifying potassium channel) thallium flux, FluoZin2; at 10 µM; stronger effect = higher value; submaximal glutamate (EC20) added with thallium
In all, about 110,000 compounds were measured (“z-score”: median about -0.1, highest 2% from about 2 on). The list comes from a sample in which the highest values are over-represented; it also holds close analogues and randomly drawn compounds.
Categories are assigned from the measured z-score using these intervals: class 0 (below -0.3), class 1 (-0.3 to below 0.4), class 2 (0.4 or more)

compound=CC(=O)c1ccc(NC(=O)CCn2c(=O)oc3ccccc32)cc1 experimental_system="Metabotropic glutamate receptor 8 (Rattus norvegicus)" assigned_category="class 0"
compound=Cc1ccc(S(=O)(=O)N2CCCCC2)cc1NC(=O)CSc1ccc2c(c1)OCCO2 experimental_system="Metabotropic glutamate receptor 8 (Rattus norvegicus)" assigned_category="class 0"
compound=CCc1ccc(NC(=O)CCn2c(=O)oc3ccccc32)cc1 experimental_system="Metabotropic glutamate receptor 8 (Rattus norvegicus)" assigned_category="class 1"
compound=COC(=O)c1ccc(NC(=O)CCn2c(=O)oc3ccccc32)cc1 experimental_system="Metabotropic glutamate receptor 8 (Rattus norvegicus)" assigned_category="class 2"
compound=NC1=NC(=O)/C(=C\c2cccs2)S1 experimental_system="Metabotropic glutamate receptor 8 (Rattus norvegicus)" assigned_category="class 1"
compound=NC1=NC(=O)/C(=C/c2cccs2)S1 experimental_system="Metabotropic glutamate receptor 8 (Rattus norvegicus)" assigned_category="class 0"
compound=Cc1cc(C)n(-c2ccc(C(=O)OCC(=O)Nc3ccc(Cl)cc3[N+](=O)[O-])cc2)n1 experimental_system="Metabotropic glutamate receptor 8 (Rattus norvegicus)" assigned_category="class 0"
compound=CC(=O)NS(=O)(=O)c1ccc(NC(=O)COc2ccc(C(=O)c3ccccc3)cc2)cc1 experimental_system="Metabotropic glutamate receptor 8 (Rattus norvegicus)" assigned_category="class 1"
compound=CN(Cc1ccccc1)C(=O)CCn1c(=O)oc2ccccc21 experimental_system="Metabotropic glutamate receptor 8 (Rattus norvegicus)" assigned_category="class 2"
compound=COCCN(CCOC)C(=O)CCn1c(=O)oc2ccccc21 experimental_system="Metabotropic glutamate receptor 8 (Rattus norvegicus)" assigned_category="class 2"
compound="C=CCc1ccccc1OCC(O)CN(CC)CC (stereo unspecified)" experimental_system="Metabotropic glutamate receptor 8 (Rattus norvegicus)" assigned_category="class 1"
